# Target of assay: Acetylcholinesterase (Electrophorus electricus)
# Study conditions: at 2 mg/mL
# Description: Inhibition of electric eel AChE at 2 mg/ml by Ellman's method
inhibition vs 10%: at or above is criterion met, below is criterion not met.

{"columns": ["Compound", "Cat"],
 "data": [
  ["CCN1C[C@]2(COC)[C@H](O)C[C@H](OC)[C@@]34[C@@H]5C[C@@]6(O)[C@H](OC(=O)c7ccccc7)[C@@H]5[C@@](OC(C)=O)([C@@H]([C@H](OC)[C@H]23)[C@@H]14)[C@@H](O)[C@@H]6OC", "criterion met"],
  ["C=C[C@](C)(O)CC[C@@H]1[C@@]2(C)CCCC(C)(C)[C@@H]2CC[C@@]1(C)O", "criterion not met"],
  ["COc1cccc2c1C(=O)c1c(O)c3c(c(O)c1C2=O)C[C@@](O)(C(=O)CO)C[C@@H]3O[C@H]1C[C@H](N)[C@H](O)[C@H](C)O1", "criterion met"],
  ["CC(=O)N[C@H]1CN2CC[C@H](O)[C@@H]2[C@@H](O)[C@@H]1O", "criterion not met"],
  ["C=C[C@@](C)(O)CC[C@H]1C(=C)CC[C@H]2C(C)(C)CCC[C@]12C", "criterion met"],
  ["C[N+](C)(C)CC(O)CC(=O)O (racemic)", "criterion not met"],
  ["C=C1[C@H]2C[C@@]3([C@@H]1O)[C@@H](CC2=O)[C@]12[C@@H]4C[C@H]3[C@H]1N(CC)C[C@]4(C)CC[C@@H]2O", "criterion met"],
  ["O=C(/C=C/c1ccc(O)cc1)CC(=O)/C=C/c1ccc(O)cc1", "criterion not met"],
  ["CC[C@@]1(O)C(=O)OCc2c1cc1n(c2=O)Cc2cc3ccccc3nc2-1", "criterion met"],
  ["CC(C)=CCC[C@]1(C)C=Cc2c(O)c3c(c(CC=C(C)C)c2O1)O[C@]12C(=C[C@@H]4C[C@H]1C(C)(C)O[C@@]2(C/C=C(/C)C(=O)O)C4=O)C3=O", "criterion not met"]
]}

---

Below, each entry is listed with its recorded inhibition.
# Target of assay: Acetylcholinesterase (Electrophorus electricus) (UniProt O42275)
# Sequence (O42275 24-633 limits assumed): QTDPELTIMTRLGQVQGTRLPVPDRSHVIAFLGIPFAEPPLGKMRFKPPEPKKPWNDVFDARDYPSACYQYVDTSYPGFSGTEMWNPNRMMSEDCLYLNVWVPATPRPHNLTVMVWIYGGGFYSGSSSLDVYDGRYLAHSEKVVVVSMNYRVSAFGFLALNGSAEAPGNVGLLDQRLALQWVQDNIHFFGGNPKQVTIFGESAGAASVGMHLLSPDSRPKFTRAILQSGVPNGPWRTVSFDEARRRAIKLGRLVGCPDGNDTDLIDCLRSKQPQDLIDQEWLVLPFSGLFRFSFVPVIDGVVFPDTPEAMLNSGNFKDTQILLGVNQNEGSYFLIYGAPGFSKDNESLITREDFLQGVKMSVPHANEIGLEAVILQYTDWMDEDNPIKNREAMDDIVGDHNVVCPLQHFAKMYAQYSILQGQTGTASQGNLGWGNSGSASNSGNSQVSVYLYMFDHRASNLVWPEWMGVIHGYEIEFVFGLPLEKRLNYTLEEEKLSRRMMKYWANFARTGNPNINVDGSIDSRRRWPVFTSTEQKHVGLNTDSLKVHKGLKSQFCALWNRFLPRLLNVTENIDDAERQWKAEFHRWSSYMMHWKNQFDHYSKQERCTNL
# Study conditions: at 2 mg/mL
Property name: inhibition

{"columns": ["Smiles notation", "Experimental value"],
 "data": [
  ["C[C@@H]1O[C@@H](O[C@H]2C[C@@H](O)[C@]3(CO)[C@H]4[C@H](O)C[C@]5(C)[C@@H](C6=CC(=O)OC6)CC[C@]5(O)[C@@H]4CC[C@]3(O)C2)[C@H](O)[C@H](O)[C@H]1O", "-3.72%"],
  ["CC[C@]12CCCN3CCc4c(n(c5ccccc45)[C@@](O)(C(=O)OC)C1)[C@@H]32", "7.29%"],
  ["C=C[C@H]1CN2CC[C@H]1C[C@H]2[C@H](O)c1ccnc2ccccc12", "3.63%"],
  ["O=C(/C=C/c1ccc(O)c(O)c1)O[C@H](Cc1ccc(O)c(O)c1)C(=O)O", "14.9%"],
  ["C[C@@H]1O[C@@H](O[C@H]2[C@H](Oc3cc(O)c4c(=O)cc(-c5ccc(O)cc5)oc4c3)O[C@H](CO)[C@@H](O)[C@@H]2O)[C@H](O)[C@H](O)[C@H]1O", "27.2%"]
]}

---

# Target of assay: Acetylcholinesterase (Electrophorus electricus) (UniProt O42275)
# Study conditions: at 2 mg/mL

{"columns": ["Smiles notation", "inhibition [%]"],
 "data": [
  ["O=c1cc(-c2ccccc2)oc2cc(O)c(O)cc12", 23.1],
  ["CCN1C[C@]2(C)CC[C@H](O)[C@]34C1[C@@H](C[C@H]23)[C@@]1(O)C[C@H](OC)[C@H]2C[C@@H]4[C@@H]1[C@H]2O", 20],
  ["Cc1cc(O)c2c(=O)c3c(O)cc(O)c4c5c(O)cc(O)c6c(=O)c7c(O)cc(C)c8c1c2c(c34)c(c78)c65", -7.15],
  ["C[C@H]1[C@H](OC(=O)CCC(=O)O)O[C@@H]2O[C@@]3(C)CC[C@H]4[C@H](C)CC[C@@H]1[C@@]24OO3", -5.55],
  ["CC[C@@H]1/C=C/C=C/C[C@H](C)[C@H](O)[C@](C)(O)C(=O)[C@H](C)[C@@H](O)[C@H](C)C(=O)[C@H](C)[C@@H](O)[C@H](C)/C=C/C(=O)O[C@H]2[C@@H](C)[C@@H](CC1)O[C@@]1(CC[C@@H](C)[C@@H](C[C@H](C)O)O1)[C@@H]2C", -5.62],
  ["O=C1C[C@@H](c2ccccc2)Oc2cc(O)cc(O)c21", 27.3]
]}
